molecular target: T1, human PD-1 protein (human, UniProt Q15116 25-167, limits assumed); assay: SPR, binding kinetics to human PD-1
T1 construct: also called human PD-1 antigen
T1 sequence (Q15116 25-167 limits assumed): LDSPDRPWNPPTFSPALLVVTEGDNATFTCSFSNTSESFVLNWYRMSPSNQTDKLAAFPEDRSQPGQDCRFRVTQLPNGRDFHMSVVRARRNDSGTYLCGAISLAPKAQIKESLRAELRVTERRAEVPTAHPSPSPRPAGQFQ
PARAMETER: kon (M⁻¹ s⁻¹)
Give the value, in units of M⁻¹ s⁻¹, as a plain number.

Query string: Could you tell me which kon is on file for AHF16560 (antibody, V domains shown) VH: QVQLVQSGAEVKKPGASVKVSCKASGYTFTGYWMHWVRQAPGQGLEWIGMIHPNSDTTIYNEKFKNRVTMTRDTSISTAYMELSRLRSDDTAVYYCAGTDQEAWHGFWGQGTTVTVSS VL: DIVMTQTPLSLSVTPGQPASISCRSSQNIVRSQGDTYLEWYLQKPGQSPQLLIYKVSKRFSGVPDRFSGSGSGTDFTLKISRVEAEDVGVYYCFQGSHVPWTFGGGTKVEIK ?
Result string: 204000

Query string: Any idea what kon was measured for AHF16558 (antibody, V domains shown) VH: QVQLVQSGAEVKKPGASVKVSCKASGYTFTGYWMHWVRQAPGQGLEWIGMIHPNSDTTTYNEKFKNRVTMTRDTSISTAYMELSRLRSDDTAVYYCAGTDQEAWHAFWGQGTTVTVSS VL: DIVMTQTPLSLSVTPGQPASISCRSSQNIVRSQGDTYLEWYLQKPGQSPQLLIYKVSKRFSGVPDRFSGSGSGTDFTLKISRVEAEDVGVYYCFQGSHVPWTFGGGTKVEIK ?
Result string: 248000
